assay: Determination of stability against mouse liver microsomes; format: in vitro ADME; details: mouse liver microsomes 1 mg protein/mL, 2 mM NADPH, pH 7.4, 37 C; read-out: Stability against mouse liver microsome NADPH+ T1/2
Reported Property: half-life (h)

P. C#Cc1ccc(Nc2c(C(=O)NOCCO)cc(/C=N/OCCO)c(F)c2F)c(F)c1 [Compound 2]
Q. CNC(=O)CCO/N=C/c1cc(C(=O)NOCCO)c(Nc2ccc(I)cc2F)c(F)c1F [Compound 14]
R. CC(=O)N(C)CCO/N=C/c1cc(C(=O)NOCCO)c(Nc2ccc(I)cc2F)c(F)c1F [Compound 25]
**Q:** With the 3 compounds above, produce a list ordered by ascending half-life. Write the labels, ordered according to the request.
**A:** Q, P, R
(Q: 0.767 h, P: 2.25 h, R: 3.3 h)

P. CN(C)CCO/N=C/c1cc(C(=O)NOCCO)c(Nc2ccc(I)cc2F)c(F)c1F [Compound 16]
Q. CNC(=O)CO/N=C\c1cc(C(=O)NOCCO)c(Nc2ccc(I)cc2F)c(F)c1F [Compound 56]
R. CC(O)CO/N=C/c1cc(C(=O)NOCCO)c(Nc2ccc(I)cc2F)c(F)c1F (centres unmarked) [Compound 15]
**Q:** Ordering criterion: half-life; begin with the maximum. Write the labels, ordered according to the request.
**A:** P, R, Q
(P: 3.08 h, R: 0.978 h, Q: 0.645 h)

----------
experiment: Determination of water solubility (equilibrium stirring method); type: physicochemical; settings: phosphate buffer, 20 °C, aqueous buffer, thermodynamic from solid; at pH 6.67; read-out: Water solubility (LySA PH 6.5)
Reported Property: solubility at 2 h (µM)
Your answer should be a plain number; it is taken to be in µM.

**Q:** Give a short answer stating reported solubility at 2 h for O=C(NOCCO)c1cc(/C=N/OCC(O)CO)c(F)c(F)c1Nc1ccc(I)cc1F (racemic) [Compound 7] .
**A:** 162

----------
assay: Determination of water solubility (equilibrium stirring method); format: physicochemical; conditions: phosphate buffer, 20 °C, aqueous buffer, thermodynamic from solid; at pH 6.08; read-out: Water solubility (LySA PH 6.5)
Reported Property: solubility at 2 h (µM)
Your answer should be a plain number; it is taken to be in µM.

**Q:** Give a short answer stating reported solubility at 2 h for `O=C(NOCCO)c1cc(/C=N/OCCCO)c(F)c(F)c1Nc1ccc(I)cc1F` .
**A:** 3.8

----------
experiment: Determination of water solubility (equilibrium stirring method); assay type: physicochemical; conditions: aqueous buffer, thermodynamic from solid; 50 mM phosphate buffer pH 6.5, room temperature (20 C); read-out: Water solubility (LySA PH 6.5)
Reported Property: solubility at 2 h (µM)

Record excerpt, results attached:
Compound	solubility at 2 h / µM
O=C(CO/N=C\c1cc(C(=O)NOCCO)c(Nc2ccc(I)cc2F)c(F)c1F)NCCO [Compound 57]	224
O=C(NOCCO)c1cc(/C=N/OCCN2CCC[C@H]2CO)c(F)c(F)c1Nc1ccc(I)cc1F [Compound 20]	1830
O=C(NOCCO)c1cc(/C=N/OCCN2CCCCC2)c(F)c(F)c1Nc1ccc(I)cc1F [Compound 17]	462

P. CNC(=O)CO/N=C\c1cc(C(=O)NOCCO)c(Nc2ccc(I)cc2F)c(F)c1F [Compound 56]
Q. O=C(NOCCO)c1cc(/C=N/OCCN2CCNC2=O)c(F)c(F)c1Nc1ccc(I)cc1F [Compound 27]
**Q:** Between these two entries, P and Q , state which has the higher solubility at 2 h. Answer by quoting the chosen item's label.
**A:** P
(P: 85 µM, Q: 10 µM)

I. CNC(=O)CCCO/N=C/c1cc(C(=O)NOCCO)c(Nc2ccc(I)cc2F)c(F)c1F [Compound 44]
II. O=C(NOCCO)c1cc(/C=N/OCCN2CCCC2)c(F)c(F)c1Nc1ccc(I)cc1F [Compound 21]
III. O=C(NOCCO)c1cc(/C=N\OCC(O)CO)c(F)c(F)c1Nc1ccc(I)cc1F (centres unmarked) [Compound 52]
IV. CC(=O)N(C)CCO/N=C/c1cc(C(=O)NOCCO)c(Nc2ccc(I)cc2F)c(F)c1F [Compound 25]
**Q:** Put the compounds in ascending order of solubility at 2 h. Write the labels, ordered according to the request.
**A:** I, IV, III, II
(I: 6 µM, IV: 54 µM, III: 175 µM, II: 1480 µM)

----------
experiment: Determination of water solubility (equilibrium stirring method); assay type: physicochemical; conditions: aqueous buffer, thermodynamic from solid; 50 mM phosphate buffer pH 6.5, room temperature (20 C); read-out: Water solubility (LySA PH 6.5)
Reported Property: solubility at 2 h (µM)

Compound	solubility at 2 h [µM]
O=C(NOCCO)c1cc(/C=N/OCCN2CCOCC2)c(F)c(F)c1Nc1ccc(I)cc1F [Compound 18]	164
C#Cc1ccc(Nc2c(C(=O)NOCCO)cc(/C=N\OCCO)c(F)c2F)c(F)c1 [Compound 48]	301
CC(=O)NCCO/N=C\c1cc(C(=O)NOCCO)c(Nc2ccc(I)cc2F)c(F)c1F [Compound 54]	20
CS(=O)(=O)NCCO/N=C/c1cc(C(=O)NOCCO)c(Nc2ccc(I)cc2F)c(F)c1F [Compound 47]	11
O=C(NOCC(O)CO)c1cc(/C=N\OCCO)c(F)c(F)c1Nc1ccc(I)cc1F (racemic) [Compound 58]	127

A. CNC(=O)CCO/N=C/c1cc(C(=O)NOCCO)c(Nc2ccc(I)cc2F)c(F)c1F [Compound 14]
B. O=C(CO/N=C/c1cc(C(=O)NOCCO)c(Nc2ccc(I)cc2F)c(F)c1F)NCCO [Compound 45]
C. CN(C)C(=O)CCO/N=C/c1cc(C(=O)NOCCO)c(Nc2ccc(I)cc2F)c(F)c1F [Compound 42]
**Q:** Ordering criterion: solubility at 2 h; begin with the maximum. Write the labels, ordered according to the request.
**A:** B, C, A

----------
test: Determination of stability against human liver microsomes; type: in vitro ADME; details: human liver microsomes 1 mg protein/mL, 2 mM NADPH, pH 7.4, 37 C; read-out: Stability against human liver microsome NADPH+ T1/2
Parameter half-life: see the listing below.

Record excerpt, results attached:
Molecule	Reported Property	Data Value
O=C(NOCCO)c1cc(/C=N/OCCN2CCC(O)CC2)c(F)c(F)c1Nc1ccc(I)cc1F	half-life	> 6 h
CNC(=O)CO/N=C\c1cc(C(=O)NOCCO)c(Nc2ccc(I)cc2F)c(F)c1F	half-life	> 6 h
CC(=O)NCCO/N=C\c1cc(C(=O)NOCCO)c(Nc2ccc(I)cc2F)c(F)c1F	half-life	> 6 h
O=C(NOCCO)c1cc(/C=N\OCCO)c(F)c(F)c1Nc1ccc(I)cc1F	half-life	> 6 h

**Q:** Give a short answer stating reported half-life for `NCCO/N=C/c1cc(C(=O)NOCCO)c(Nc2ccc(I)cc2F)c(F)c1F` .
**A:** > 6 h

**Q:** Give a short answer stating reported half-life for `CNC(=O)CCCO/N=C/c1cc(C(=O)NOCCO)c(Nc2ccc(I)cc2F)c(F)c1F` .
**A:** > 6 h

----------
target: MEK (Homo sapiens)
Sequence (Q02750 whole entry): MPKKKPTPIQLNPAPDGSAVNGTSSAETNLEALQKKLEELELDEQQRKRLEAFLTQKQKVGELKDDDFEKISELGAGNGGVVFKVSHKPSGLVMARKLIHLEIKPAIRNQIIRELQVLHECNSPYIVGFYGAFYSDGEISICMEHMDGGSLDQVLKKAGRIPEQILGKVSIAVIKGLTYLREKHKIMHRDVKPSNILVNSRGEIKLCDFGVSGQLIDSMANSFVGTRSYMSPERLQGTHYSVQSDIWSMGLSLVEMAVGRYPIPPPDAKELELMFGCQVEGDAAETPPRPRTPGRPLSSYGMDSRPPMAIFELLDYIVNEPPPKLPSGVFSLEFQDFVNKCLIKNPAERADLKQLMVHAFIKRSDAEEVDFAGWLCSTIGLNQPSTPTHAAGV
Reported Property: IC50 (nM)

Molecule	Assayed Target	Unit Symbol	IC50
CC(C)(O)CO/N=C/c1cc(C(=O)NOCCO)c(Nc2ccc(I)cc2F)c(F)c1F [Compound 12]	MEK (Homo sapiens)	nM	37

A. CC(C)O/N=C/c1cc(C(=O)NOCCO)c(Nc2ccc(I)cc2F)c(F)c1F [Compound 32]
B. CO/N=C/c1cc(C(=O)NOCCO)c(Nc2ccc(I)cc2F)c(F)c1F [Compound 31]
**Q:** Between these two entries, A and B , state which has the higher IC50. Answer by quoting the chosen item's label.
**A:** A
(A: 1250 nM, B: 335 nM)

----------
Parameter solubility at 2 h: see the listing below.
assay: Determination of water solubility (equilibrium stirring method); format: physicochemical; conditions: aqueous buffer, thermodynamic from solid; 50 mM phosphate buffer pH 6.5, room temperature (20 C); read-out: Water solubility (LySA PH 6.5)

Compound	Data Value
CS(=O)(=O)CCO/N=C\c1cc(C(=O)NOCCO)c(Nc2ccc(I)cc2F)c(F)c1F	< 7.8 µM
CC(C)(O)CO/N=C\c1cc(C(=O)NOCCO)c(Nc2ccc(I)cc2F)c(F)c1F	< 7.8 µM
O=C(NOCCO)c1cc(/C=N/OCc2ccncc2)c(F)c(F)c1Nc1ccc(I)cc1F	< 31.3 µM
CSCCO/N=C/c1cc(C(=O)NOCCO)c(Nc2ccc(I)cc2F)c(F)c1F	< 7.8 µM
O=C(NOCCO)c1cc(/C=N/O)c(F)c(F)c1Nc1ccc(I)cc1F	6.4 µM
CC(O)CO/N=C/c1cc(C(=O)NOCCO)c(Nc2ccc(I)cc2F)c(F)c1F (centres unmarked)	8 µM
O=C(NOCCO)c1cc(/C=N/OCc2ncc[nH]2)c(F)c(F)c1Nc1ccc(I)cc1F	< 31.3 µM

Lab note: next compound to report on.
**Q:** Give a short answer stating reported solubility at 2 h for `O=C(NOCCO)c1cc(/C=N/OCC2(CO)CC2)c(F)c(F)c1Nc1ccc(I)cc1F` .
**A:** < 7.8 µM
